Measured binding signal (PBM E-score (-0.5 to 0.5)), listed per entry for reference.
- target-entity: end-1 (F58E10.2) (Caenorhabditis elegans) (UniProt G5EDN4)
- Sequence: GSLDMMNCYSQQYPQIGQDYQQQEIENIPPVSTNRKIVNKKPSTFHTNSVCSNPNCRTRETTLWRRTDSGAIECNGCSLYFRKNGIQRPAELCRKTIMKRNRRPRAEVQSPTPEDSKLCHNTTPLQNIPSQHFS
readout-label: binding signal (PBM E-score (-0.5 to 0.5))

{"entry-sequence": "CCTTATCG (double strand) [8-mer CCTTATCG]", "reported": 0.486}
{"entry-sequence": "TATCGATA (double strand) [8-mer TATCGATA]", "reported": 0.49}
{"entry-sequence": "AGATAAGG (double strand) [8-mer AGATAAGG]", "reported": 0.484}
{"entry-sequence": "ATCTTATC (double strand) [8-mer ATCTTATC]", "reported": 0.495}
{"entry-sequence": "CGATAACG (double strand) [8-mer CGATAACG]", "reported": 0.483}
{"entry-sequence": "GATATCGC (double strand) [8-mer GATATCGC]", "reported": 0.487}
{"entry-sequence": "CCGATAAG (double strand) [8-mer CCGATAAG]", "reported": 0.486}
{"entry-sequence": "CGATATCG (double strand) [8-mer CGATATCG]", "reported": 0.496}
{"entry-sequence": "CCGATATC (double strand) [8-mer CCGATATC]", "reported": 0.487}
{"entry-sequence": "TGATATCA (double strand) [8-mer TGATATCA]", "reported": 0.493}
{"entry-sequence": "ATGATATC (double strand) [8-mer ATGATATC]", "reported": 0.484}

Data provenance: paper PMC4434323
